- Test system: COLO 205 colon
- Assay Info: NCI tumour cell line growth inhibition, 48 h
Readout Kind: TGI

Recorded result, `COCOCC/C=C/C=O` , TGI: > 100 µM

Recorded result, `CCOC(=O)c1sc2nc(SC)nc3c2c1NCN3c1ccc2c(c1)OCO2` , TGI: > 100 µM

Recorded result, `COc1ccc(-c2cc(C(=O)Nc3ccc(C)c(C)c3)nc(NC#N)n2)cc1` , TGI: > 100 µM

Recorded result, COCCNC(=O)C1C(=O)C(=O)N(CCOC)C1=O (centres undefined) , TGI: > 100 µM

Recorded result, Cc1ccc(C)c(N2C(=O)C(=O)C(c3nc4ccccc4s3)/C(=N/NC(=O)NN)C2=O)c1 (centres undefined) , TGI: > 100 µM

Recorded result, C=C1CCC2[C@@H](CCC3[C@]2(C)CCC[C@]3(C)C(=O)OC)C1CC=O (some centres undefined) , TGI: 35.5 µM

Recorded result, `N#CC(C#N)c1ccc(C(=O)N2CCC[C@H]2CO)cc1` , TGI: > 100 µM

Recorded result, `Oc1ccc2cc(Br)ccc2c1-c1c(O)ccc2ccc(Br)cc12` , TGI: 26.5 µM

Recorded result, CCOC(=O)C(=CNc1ccc(NC2=NCC(C)S2)cc1)C(=O)OCC (centres undefined) , TGI: > 100 µM

Recorded result, `Cc1cc(N(CCC#N)CCC#N)ccc1/C(N=Nc1cccc(Cl)c1)=N/NC(=O)c1cc(Cl)ccc1O` , TGI: 17.8 µM

Recorded result, `CN(C)C(=NCc1ccccc1)NC#N` , TGI: > 100 µM

Recorded result, `C[CH2][Sn]([CH2]C)([O]C(=O)c1ccccc1OC)[O][Sn]([CH2]C)([CH2]C)[O]C(=O)c1ccccc1OC` , TGI: > 100 µM

Recorded result, COC(=O)c1cc2c(c3c1CC(Cc1ccccc1)C3=O)CCC2 (centres undefined) , TGI: > 100 µM

Recorded result, CC(C)=CCN1CC(C)C(=O)Nc2ccccc21 (centres undefined) , TGI: > 100 µM

Recorded result, `N[C@H](C(=O)O)[C@@H]1CC(Br)=NO1` , TGI: > 100 µM

Recorded result, `CCOC(=O)C1(F)S(=O)(=O)OCCOS1(=O)=O` , TGI: > 100 µM

Recorded result, `O=C(c1ccccc1)N(C(=O)c1ccccc1)c1nc(SCc2ccccc2)ns1` , TGI: 40.3 µM

Recorded result, COc1ccc(CCC2c3cc(OC)c(OC)cc3CCN2C)cc1OC (centres undefined) , TGI: > 100 µM

Recorded result, CCC1(O)C(=O)OCc2c1cc1n(c2=O)Cc2cc3c(NC(=O)CN)cccc3nc2-1 (centres undefined) , TGI: 46.6 µM

Recorded result, `CON(C)c1nc(N(C)OC)nc(N(C)OC)n1` , TGI: > 10 µM

Recorded result, `Cc1ccc(-c2nc(N/N=C/C=C/c3ccccc3)c3ccccc3n2)cc1` , TGI: > 100 µM

Recorded result, `O=c1[nH]c(=S)nc2nc3c4ccc[nH]c4c4ccccc4c3nc12` , TGI: > 100 µM

Recorded result, `CCC(=O)C(CCN1CCC2(CCCc3ccccc32)CC1)(c1ccccc1)c1ccccc1` , TGI: 2.91 µM

Recorded result, CC1(c2nc3ccccc3[nH]2)CCC(C(=O)O)C(C)(C)O1 (centres undefined) , TGI: > 100 µM

Recorded result, `O=[N+]([O-])c1ccc(C(=S)Nc2ccccc2)o1` , TGI: 2.79 µM

Recorded result, `c1cnc2c(c1)ccc1cccnc12` , TGI: > 83.3 µM

Recorded result, `CN(CCNCc1ccccn1)CCNCc1ccccn1` , TGI: 6.02 µM

Recorded result, CCCCCO/N=C\c1c2c(O)c3c(O)c(C)c4c(c3c1O)C(=O)C(C)(O/C=C\C(OC)C(C)C(OC(C)=O)C(C)C(O)C(C)C(O)C(C)/C=C\C=C(\C)C(=O)N2)O4 (centres undefined) , TGI: 2.85 µM

Recorded result, `c1ccc(CCc2cccnc2)nc1` , TGI: > 100 µM

Recorded result, `CSc1nc2sc3c(c2c(=O)n1-c1ccc(C(C)C)cc1)CCC(=O)C3` , TGI: 3.63 µM

Recorded result, `C=CCN1CC(=O)N2[C@@H](Cc3ccc(O)cc3F)C(=O)N(Cc3cccc(N4CC(N5CCN(CC)CC5)C4)n3)C[C@@H]2N1C(=O)NCc1ccccc1` , TGI: 0.262 µM

Recorded result, `COc1ccc(OC)c(CNc2ccc(C(=O)O)cc2)c1` , TGI: > 100 µM

Recorded result, CCN(CC)c1ccc2c(c1)Oc1ccc(N(CC)CC)cc1C21Oc2ccccc2-c2c1c1ccccc1n2CC (centres undefined) , TGI: > 100 µM

Recorded result, Nc1[nH]c(=O)nc2c1cnn2C1CCCCO1 (centres undefined) , TGI: > 100 µM

Recorded result, `COc1ccc(/C=C(\C#N)n2nnc3c(F)cccc32)cc1` , TGI: > 100 µM

Recorded result, O=C(c1nc2ccccc2[nH]c1=O)C(O)c1ccccc1 (centres undefined) , TGI: > 100 µM

Recorded result, `COC(=O)[C@H]1CCCN1C(=O)[C@H]1CCCN1C(=O)[C@@H](Cc1c[nH]c2ccccc12)NC(=S)Nc1cc(C(F)(F)F)cc(C(F)(F)F)c1` , TGI: 3.49 µM

Recorded result, CCCCCCCC1(N=[N+]=[N-])C(=O)Nc2ccccc2C1=O (centres undefined) , TGI: 36.3 µM

Recorded result, `O=[N+]([O-])c1cccc2nc3ccccc3c(NCCCNc3c4ccccc4nc4cccc([N+](=O)[O-])c34)c12` , TGI: < 0.01 µM

Recorded result, `CC(=O)OCCOCNC(=S)N/N=C/c1cc(Br)cs1` , TGI: > 100 µM

Recorded result, `OC(C#Cc1ccccc1)(c1ccccc1)c1ccccc1` , TGI: > 100 µM

Recorded result, `Cc1cn(CCCCC2=NCCCN2)c(=O)[nH]c1=O` , TGI: > 43.4 µM

Recorded result, CC1OC(OC2C(O)CC(OC3C(O)CC(OC4CCC5(C)C(CCC6C5CC(O)C5(C)C(C7=CC(=O)OC7)CCC65O)C4)OC3C)OC2C)CC(O)C1O (centres undefined) , TGI: 0.272 µM

Recorded result, `CC1(C)CC[C@]2(C)CC[C@]3(C)C(=CC[C@@H]4[C@@]5(C)CCC(=O)C(C)(C)[C@@H]5[C@H](O)C[C@]43C)[C@@H]2C1` , TGI: 32 µM
